# Kd values compiled below
tested_target: T1, human BCMA-Fc (human)
T1 chain: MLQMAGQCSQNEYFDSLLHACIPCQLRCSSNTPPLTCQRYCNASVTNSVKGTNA
method_notes: SPR, 25C
Provide the reading as a plain figure in nM.

>  <binder>
P1AG5060 (E04_VH1b/VL1f) (antibody, V domains shown) VH: QVQLVQSGAEVKKPGASVKVSCKASGYTFTNYWMHWVRQAPGQGLEWMGIIHPNSGSTNYNEKFQGRVTMTVDKSTSTVYMELSSLRSEDTAVYYCARGIYDYPFAYWGQGTLVTVSS VL: DIQMTQSPSSLSASVGDRVTITCRASESVSIHGTHLMHWYQQKPGKAPKLLIYAASSLQSGVPSRFSGSGSETDFTLTISSLQPEDFATYYCQQSIEDPYTFGGGTKVEIK

>  <measurement_units>
nM

>  <Kd>
3.2

$$$$

Pending binder:
Task item: Which Kd value belongs to P1AG5046 (54_VH1b/VL1a_T699S) (antibody, V domains shown) VH: EVQLVESGGGLVKPGGSLRLSCAASGFTFSNAWMDWVRQAPGKGLEWIAQITAKSNNYATYYAAPVKGRFTISRDDSKNTLYLQMNSLKTEDTAVYYCTDDGYHWGQGTLVTVSS VL: AIQMTQSPSSLSASVGDRVTITCRASEDIRNGLAWYQQKPGKAPKLLIYNANSLHSGVPSRFSGSGSGTDFTLTISSLQPEDFATYYCEDTSKYPYTFGQGTKLEIK ?
Reply: 1.9

Values from patent US20260285998
